Observed Ki, system hCA XII (Homo sapiens, UniProt O43570).

{"columns": ["Molecule", "Result"],
 "data": [
  ["COc1ccc(C(C)=O)cc1S(N)(=O)=O [compound 3, 5-acetyl-2-methoxybenzene-1-sulfonamide]", "5.25 µM"],
  ["COc1ccc(C(=O)/C=C/c2ccccc2Br)cc1S(N)(=O)=O", "> 10 µM"],
  ["COc1ccc(C(=O)/C=C/c2ccc3ccccc3c2)cc1S(N)(=O)=O", "> 10 µM"],
  ["COc1ccc(C(=O)/C=C/c2cccc(Cl)c2)cc1S(N)(=O)=O", "> 10 µM"]
]}

Report the value of Ki obtained on hCA XII (Homo sapiens, UniProt O43570) for `COc1ccc(C(=O)/C=C/c2ccccc2Cl)cc1S(N)(=O)=O` . > 10 µM
